The measurements presented in this section are drawn from patent US8143263B2.

Biological target: recombinant human pancreatic GLK (Homo sapiens, UniProt P35557)
Assay: biochemical
endpoint_name: pEC50
// returns pEC50 (minus log10 of molar concentration), number only

So, Cc1ccc(NC(=O)C(CCC(N)=O)Oc2ncnc3c2cnn3-c2ccccc2Cl)nc1 (stereo not shown) ? Its pEC50 was 6.23

Reported pEC50 ( Cc1cnc(NC(=O)[C@H](CCO)Oc2ncnc3c2cnn3-c2ncccc2Cl)cn1 [Example 143a] ) = 5.59

Consider Cc1cnc(NC(=O)[C@H](COC2CCC2)Oc2ncnc3c2cnn3-c2ncccc2C(F)(F)F)cn1 . Its measured pEC50 is 6.46

In plain terms, Cc1ccc(NC(=O)C(CCS(C)(=O)=O)Oc2ncnc3c2cnn3-c2ccccc2Cl)nc1 (stereo not shown) has a documented pEC50 of 6.28

* * *

Target: recombinant human pancreatic GLK (Homo sapiens)
Assay: biochemical
Please provide measured pEC50 for the entries that follow.
Scale for pEC50: -log10 of concentration given in mol/L; no unit attached.

CC(C)OC[C@H](Oc1ncnc2c1cnn2-c1ncccc1Cl)C(=O)Nc1ccc(S(C)(=O)=O)cn1 has a reported pEC50 of 5.82

Looking up COCC[C@H](Oc1ncnc2c1cnn2-c1ccccc1Cl)C(=O)Nc1ccc(C)cn1 , I see its pEC50 listed as 7.49

Data point: CCOC[C@H](Oc1ncnc2c1cnn2-c1ccccc1C(F)(F)F)C(=O)Nc1ccc(C#N)cn1 ; pEC50 = 6.33

Entry Cc1ccc(F)cc1-n1ncc2c(O[C@@H](COCCO)C(=O)Nc3ccc(C#N)cn3)ncnc21 , pEC50 reported as 5.52

Cc1ccc(NC(=O)[C@@H](COC(C)C)Oc2ncnc3c2cnn3-c2ccccc2Cl)nc1 has a reported pEC50 of 5.03

* * *

Biological target: recombinant human pancreatic GLK (Homo sapiens, UniProt P35557)
Sequence (P35557 1-465): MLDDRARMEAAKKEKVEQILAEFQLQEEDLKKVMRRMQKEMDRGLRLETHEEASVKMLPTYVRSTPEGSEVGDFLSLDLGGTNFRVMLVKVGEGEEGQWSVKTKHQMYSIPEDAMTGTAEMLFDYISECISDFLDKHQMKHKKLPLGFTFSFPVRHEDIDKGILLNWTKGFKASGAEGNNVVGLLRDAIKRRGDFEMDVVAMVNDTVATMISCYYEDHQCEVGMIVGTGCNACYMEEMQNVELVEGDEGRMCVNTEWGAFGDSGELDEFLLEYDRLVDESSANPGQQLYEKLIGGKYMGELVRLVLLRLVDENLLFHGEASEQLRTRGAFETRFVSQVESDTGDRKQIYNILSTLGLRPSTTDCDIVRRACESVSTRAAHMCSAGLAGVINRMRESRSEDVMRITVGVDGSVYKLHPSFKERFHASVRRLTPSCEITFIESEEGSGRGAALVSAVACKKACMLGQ
Assay: biochemical
endpoint_name: EC50 (nM)
State just the number; it will be interpreted in nM.

The compound listed as Cc1c(Cl)cccc1-n1ncc2c(O[C@@H](COCCO)C(=O)Nc3ccc(Cl)cn3)ncnc21 [Example 173] has a reported EC50 of 920

EC50 for COCCC(Oc1ncnc2c1cnn2-c1ccccc1OC)C(=O)Nc1nc(C)cs1 (centres unmarked) [Example 35] is 2100

Please fill in: EC50 reported for O=C(Nc1ccccn1)[C@H](CN1CC(O)C1)Oc1ncnc2c1cnn2-c1c(Cl)cccc1Cl [Example 233] = 210

Looking up O=C(Nc1ccccn1)[C@H](CN1CC(O)C1)Oc1ncnc2c1cnn2-c1ccccc1Cl [Example 225] , I see its EC50 listed as 220

get_value(item= Cc1ccc(NC(=O)[C@@H](Oc2ncnc3c2cnn3-c2ncccc2Cl)C(C)C)nc1 [Example 86] , readout=EC50) returns 1500

For this compound ( COCCC(Oc1ncnc2c1cnn2-c1ccc(F)cc1F)C(=O)Nc1ccc(C)cn1 (centres unmarked) [Example 25] ), measured EC50 is 1200

The value of EC50 measured for the compound Cc1ccc(NC(=O)[C@H](COC(C)C)Oc2ncnc3c2cnn3-c2ncccc2Cl)nc1 [Example 91] turned out to be 160

CCCCC(Oc1ncnc2c1cnn2-c1ccccc1Cl)C(=O)Nc1cnc(C)cn1 (centres unmarked) [Example 40] has a reported EC50 of 140

* * *

Biological target: recombinant human pancreatic GLK (Homo sapiens)
Sequence (P35557 1-465): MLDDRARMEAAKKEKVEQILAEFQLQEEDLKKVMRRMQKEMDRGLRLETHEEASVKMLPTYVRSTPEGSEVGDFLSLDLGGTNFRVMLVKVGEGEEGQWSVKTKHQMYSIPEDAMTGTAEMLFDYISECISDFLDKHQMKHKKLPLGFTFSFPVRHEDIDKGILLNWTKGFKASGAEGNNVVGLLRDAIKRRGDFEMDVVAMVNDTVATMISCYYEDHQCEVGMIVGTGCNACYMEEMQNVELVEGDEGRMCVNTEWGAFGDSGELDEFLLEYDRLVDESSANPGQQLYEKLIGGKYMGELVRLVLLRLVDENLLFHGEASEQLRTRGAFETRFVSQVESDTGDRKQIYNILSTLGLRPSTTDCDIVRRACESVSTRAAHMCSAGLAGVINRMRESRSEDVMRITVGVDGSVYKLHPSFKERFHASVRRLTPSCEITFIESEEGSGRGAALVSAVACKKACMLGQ
Test: biochemical
endpoint_name: EC50

The compound identified as COc1ccccc1-n1ncc2c(O[C@H](CCS(C)(=O)=O)C(=O)Nc3ccc(C)cn3)ncnc21 registered its EC50 at ≥ 100 µM

# EC50 (compound: COCC(Oc1ncnc2c1cnn2C)C(=O)Nc1ccc(C)cn1 (centres unmarked) ) is ≥ 100 µM

Memo: COc1ccnc(NC(=O)[C@H](COC(C)C)Oc2ncnc3c2cnn3-c2ncccc2Cl)c1 , reported EC50: > 100 µM

The recorded EC50 for entry CCCCCCC(Sc1ncnc2c1cnn2-c1ccccc1Cl)C(=O)Nc1ccc(C)cn1 (centres unmarked) equals > 100 µM

Record COc1ccccc1-n1ncc2c(O[C@H](C)C(=O)Nc3ccc(C)cn3)ncnc21 . Reported EC50: > 100 µM

* * *

Target: recombinant human pancreatic GLK (Homo sapiens, UniProt P35557)
Sequence (P35557 1-465): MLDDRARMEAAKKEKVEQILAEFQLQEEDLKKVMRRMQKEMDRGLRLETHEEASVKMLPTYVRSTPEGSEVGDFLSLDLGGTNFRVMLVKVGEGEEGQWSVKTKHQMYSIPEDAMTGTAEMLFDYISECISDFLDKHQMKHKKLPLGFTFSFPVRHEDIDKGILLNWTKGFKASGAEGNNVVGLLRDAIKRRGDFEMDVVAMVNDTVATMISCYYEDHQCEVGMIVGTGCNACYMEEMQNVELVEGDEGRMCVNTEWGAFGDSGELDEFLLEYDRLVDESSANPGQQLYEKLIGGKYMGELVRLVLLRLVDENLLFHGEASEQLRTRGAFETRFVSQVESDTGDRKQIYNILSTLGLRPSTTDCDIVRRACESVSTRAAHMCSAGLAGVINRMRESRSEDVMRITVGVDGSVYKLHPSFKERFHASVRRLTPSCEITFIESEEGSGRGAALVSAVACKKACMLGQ
Test: biochemical
endpoint_name: EC50

Note to self: EC50 of O=C(Nc1ccc(F)cn1)[C@H](CN1CC(O)C1)Oc1ncnc2c1cnn2-c1c(Cl)cccc1Cl [Example 230] with recombinant human pancreatic GLK (Homo sapiens, UniProt P35557) was 110 nM

Entry CCOC[C@H](Oc1ncnc2c1cnn2-c1ncccc1Cl)C(=O)Nc1ccc(S(C)(=O)=O)cn1 [Example 139] ; assay system recombinant human pancreatic GLK (Homo sapiens, UniProt P35557); EC50 recorded at 1400 nM

Known value: recombinant human pancreatic GLK (Homo sapiens, UniProt P35557) EC50 of the compound O=C(Nc1ccc(Cl)cn1)[C@H](COCCO)Oc1ncnc2c1cnn2-c1cccc(Cl)c1Cl [Example 202] equals 340 nM

# EC50 measured on recombinant human pancreatic GLK (Homo sapiens, UniProt P35557) for item COC[C@H](Oc1ncnc2c1cnn2-c1ccc(F)cc1Cl)C(=O)Nc1cnc(C)cn1 [Example 95] = 39000 nM

Record COCC[C@H](Oc1ncnc2c1cnn2-c1cccc(C)c1)C(=O)Nc1ccc(C)cn1 [Example 33] ; system recombinant human pancreatic GLK (Homo sapiens, UniProt P35557); EC50 = > 1700 nM

Measured on recombinant human pancreatic GLK (Homo sapiens, UniProt P35557), C[C@@H](CO)OC[C@H](Oc1ncnc2c1cnn2-c1ncccc1Cl)C(=O)Nc1ccc(F)cn1 [Example 192] has a documented EC50 of 360 nM

Field EC50 (system: recombinant human pancreatic GLK (Homo sapiens, UniProt P35557)) for entry COC[C@H](Oc1ncnc2c1cnn2-c1ccccc1C#N)C(=O)Nc1ccc(C)cn1 [Example 97] = 1200 nM

Entry Cc1cccnc1-n1ncc2c(O[C@@H](COC(C)C)C(=O)Nc3ccc(C#N)cn3)ncnc21 [Example 127a] , tested on recombinant human pancreatic GLK (Homo sapiens, UniProt P35557), has a reported EC50 of 1100 nM

Measured EC50 (recombinant human pancreatic GLK (Homo sapiens, UniProt P35557)), entry O=C(Nc1ccccn1)[C@H](COCCO)Oc1ncnc2c1cnn2-c1ccccc1C(F)(F)F [Example 199] : 1100 nM

Value (EC50, recombinant human pancreatic GLK (Homo sapiens, UniProt P35557)) for record Cc1ccc(NC(=O)[C@H](COC(C)C)Oc2ncnc3c2cnn3-c2ncccc2C(F)(F)F)nc1 [Example 126] = 570 nM

Value (EC50, recombinant human pancreatic GLK (Homo sapiens, UniProt P35557)) for record COC[C@H](Oc1ncnc2c1cnn2-c1ncccc1Cl)C(=O)Nc1cnc(C)cn1 [Example 90] = 5400 nM

Item CCOC[C@H](Oc1ncnc2c1cnn2-c1ncccc1Cl)C(=O)Nc1ccc(C)cn1 [Example 103] ; assay system recombinant human pancreatic GLK (Homo sapiens, UniProt P35557); EC50 reported as 280 nM

Sample N#Cc1ccc(NC(=O)[C@H](COCCO)Oc2ncnc3c2cnn3-c2ccccc2Cl)nc1 [Example 172] , system: recombinant human pancreatic GLK (Homo sapiens, UniProt P35557). Its EC50 is 810 nM

For Cc1nsc(NC(=O)[C@H](COC(C)C)Oc2ncnc3c2cnn3-c2ccccc2Cl)n1 [Example 100] on recombinant human pancreatic GLK (Homo sapiens, UniProt P35557), measured EC50 was 1000 nM
